read-out: Monocyte Chemoattractant Protein-1 (MCP1), CCL2 (gene 6347); test: BSK_3C_MCP1: BioMAP Diversity Plus: 3C Assay for Monocyte Chemoattractant Protein-1 (MCP1) Biomarker Activity (AID 2283017); conditions: primary human endothelial cells (HUVEC); actives raise or lower the signal
Activity calls are given as the source filed them. How the source made its calls: active means hit-call score of the fitted dose curve at least 0.9, where 1 is the maximum; inactive means score below 0.9.
assay_metric: AC50

Worked examples follow.
{"molecule": "Cc1ccc2ncccc2c1", "AC50": "inactive"}
{"molecule": "Oc1ccc2c(c1)OC[C@@H](N1CCC(O)(c3ccc(F)cc3)CC1)[C@H]2O", "AC50": "inactive"}
{"molecule": "CC(=O)C(C)=CC1C(C)=CCCC1(C)C (stereo not given)", "AC50": "inactive"}
{"molecule": "Cc1ccc(C(C)C)c(O)c1", "AC50": "inactive"}
{"molecule": "Cc1cccc(C)c1O", "AC50": "inactive"}

Batch: AC50 for all items listed.
1. Oc1ccc2ccccc2c1N=Nc1ccccc1
2. Clc1cc(Cl)c(Cl)cc1Cl

["inactive", "inactive"]

Taken from PubChem BioAssay (EPA / NIEHS).
